Tested on: PBMC
TEST DESCRIPTION: Cytotoxicity against human PBMC assessed as reduction in cell viability after 6 days by trypan blue exclusion assay
Assay type: cell-based
CONDITION PARAMETERS: 144 h
Binary call on CC50 with cut-off 40 µM: strictly below means t, and equality or higher means f.

These recorded examples may help you get a feel for the data.
COMPOUND	CATEGORY
CC(C)C[C@H](NC(=O)[C@H](Cc1cccc2ccccc12)NC(=O)OCc1ccccc1)C(=O)N[C@H](C=O)C[C@@H]1CCCNC1=O	t
CC(C)C[C@H](NC(=O)[C@H](Cc1cccc2ccccc12)NC(=O)OCc1ccccc1)C(=O)N[C@H](/C=C(\C#N)C(N)=O)C[C@@H]1CCCNC1=O	f
CC(C)C[C@H](NC(=O)[C@H](Cc1cccc2ccccc12)NC(=O)OCc1ccccc1)C(=O)N[C@H](CO)CNC(=O)N1CCC1	t
CC(C)C[C@H](NC(=O)[C@H](Cc1cccc2ccccc12)NC(=O)OCc1ccccc1)C(=O)N[C@@H](C[C@@H]1CCCNC1=O)C(O)S(=O)(=O)O (stereo partly specified)	f
CC(C)C[C@H](NC(=O)[C@H](Cc1cccc2ccccc12)NC(=O)OCc1ccccc1)C(=O)N[C@@H](C[C@@H]1CCCNC1=O)C(=O)C(F)(F)F	f

Below: the item to evaluate.
Exercise: Strictly below 40 µM in CC50? CC(C)C[C@H](NC(=O)[C@H](Cc1cccc2ccccc12)NC(=O)OCc1ccccc1)C(=O)NC(C[C@@H]1CCNC1=O)C1CO1 (stereo partly specified)
Solution: t

====

SYSTEM UNDER TEST: Protease (Norovirus Hu/GII.4-2002/WeertE022/2002/NL)
Sequence (G1FEK8 whole entry): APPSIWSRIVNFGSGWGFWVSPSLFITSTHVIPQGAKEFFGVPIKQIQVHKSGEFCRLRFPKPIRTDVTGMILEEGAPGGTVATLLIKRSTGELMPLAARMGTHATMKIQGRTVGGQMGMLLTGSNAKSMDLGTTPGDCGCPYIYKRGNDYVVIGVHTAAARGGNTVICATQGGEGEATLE
READOUT TYPE: IC50 (µM)
Note: unit µM is implicit; provide only the numeric part.

COMPOUND	IC50, µM
CC(C)C[C@H](NC(=O)[C@H](Cc1cccc2ccccc12)NC(=O)OCc1ccccc1)C(=O)N[C@H](C=O)C[C@@H]1CCNC1=O	0.06

// moving on: another record for IC50
Exercise: Give the reported value of IC50 for this record: CC(C)C[C@H](NC(=O)[C@H](Cc1cccc2ccccc12)NC(=O)OCc1ccccc1)C(=O)NC(C[C@@H]1CCNC1=O)C1OC1S(C)(=O)=O (some centres undefined)
Solution: 30

====

CC50 overview
Tested on: Vero
TEST DESCRIPTION: Cytotoxicity against African green monkey Vero cells assessed as reduction in cell viability after 3 days by hemocytometer
Assay type: cell-based
CONDITION PARAMETERS: chlorocebus sabaeus, 72 h
Note: unit µM is implicit; provide only the numeric part.

>>> df
                                   compound  system_under_test  obs_value
0  CC(C)C[C@H](NC(=O)[C@H](Cc1cccc2ccccc12)NC(=O)OCc1ccccc1)C(=O)NC(C[C@@H]1CCNC1=O)C1CO1 (some centres undefined)               Vero       30.4
1  CC(C)C[C@H](NC(=O)[C@H](Cc1cccc2ccccc12)NC(=O)OCc1ccccc1)C(=O)NC(/C=C/C=O)C[C@@H]1CCNC1=O (some centres undefined)               Vero       77.7

Exercise: Give the reported value of CC50 for this record: CC(C)C[C@H](NC(=O)[C@H](Cc1cccc2ccccc12)NC(=O)OCc1ccccc1)C(=O)N[C@H](CCl)C[C@@H]1CCCNC1=O
Solution: 51.7

Exercise: Give the reported value of CC50 for this record: CC(C)C[C@H](NC(=O)[C@H](Cc1cccc2ccccc12)NC(=O)OCc1ccccc1)C(=O)N[C@H](CO)CCC(=O)N1CCC1
Solution: 8.6

Exercise: Give the reported value of CC50 for this record: CC(C)C[C@H](NC(=O)[C@H](Cc1cccc2ccccc12)NC(=O)OCc1ccccc1)C(=O)N[C@H](C=O)C[C@@H]1CCCNC1=O
Solution: 19.8
